statedConditions: siRNA; further: test system not given here
HELM strings list units from the 5' end as sugar, base in round brackets, then linkage (d deoxyribose, r ribose, m 2'-O-methyl, p phosphodiester). Strings are as the collection lists them, not checked against the first reports. ss, as = sense and antisense strand

substance	target mRNA knockdown [%]
RNA1{r(C)p.r(G)p.r(U)p.r(A)p.r(C)p.r(G)p.r(C)p.r(G)p.r(G)p.r(A)p.r(A)p.r(U)p.r(A)p.m(C)p.m(U)p.m(U)p.m(C)p.m(G)p.m(A)p.r(T)p.r(T)}|RNA2{r(U)p.r(C)p.r(G)p.r(A)p.r(A)p.r(G)p.r(U)p.r(A)p.r(U)p.r(U)p.r(C)p.r(C)p.r(G)p.r(C)p.r(G)p.r(U)p.r(A)p.r(C)p.r(G)p.r(T)p.r(T)}$$$RNA1{StrandType:ss}|RNA2{StrandType:as}$	94.2
RNA1{r(G)p.r(G)p.r(G)p.r(A)p.r(G)p.r(G)p.r(U)p.r(C)p.r(U)p.m(U)p.r(A)p.r(G)p.r(A)p.r(A)p.r(A)p.r(A)p.r(C)p.r(A)p.r(C)p.r(T)p.r(T)}|RNA2{r(G)p.r(U)p.r(G)p.r(U)p.r(U)p.r(U)p.r(U)p.r(C)p.m(U)p.r(A)p.r(A)p.r(G)p.r(A)p.r(C)p.r(C)p.r(U)p.r(C)p.r(C)p.r(C)p.r(T)p.r(T)}$$$RNA1{StrandType:ss}|RNA2{StrandType:as}$	84

====

target mRNA knockdown by entry:
statedConditions: siRNA
HELM strings list units from the 5' end as sugar, base in round brackets, then linkage (d deoxyribose, r ribose, m 2'-O-methyl, p phosphodiester). Strings are as the collection lists them, not checked against the first reports. ss, as = sense and antisense strand

substance	target mRNA knockdown
RNA1{m(G)p.r(A)p.m(U)p.r(U)p.m(C)p.r(C)p.m(A)p.r(A)p.m(A)p.r(C)p.m(C)p.r(C)p.m(C)p.r(A)p.m(C)p.r(U)p.m(A)p.r(U)p.m(C)p.r(T)p.r(T)}|RNA2{r(G)p.r(A)p.r(U)p.r(A)p.r(G)p.r(U)p.r(G)p.r(G)p.r(G)p.r(G)p.r(U)p.r(U)p.r(U)p.r(G)p.r(G)p.r(A)p.r(A)p.r(U)p.r(C)p.r(T)p.r(T)}$$$RNA1{StrandType:ss}|RNA2{StrandType:as}$	54%
RNA1{r(C)p.r(G)p.r(G)p.r(A)p.r(U)p.r(C)p.m(U)p.r(A)p.r(C)p.r(A)p.r(C)p.r(C)p.r(U)p.r(U)p.r(C)p.m(A)p.r(A)p.r(G)p.r(A)p.r(T)p.r(T)}|RNA2{r(U)p.r(C)p.r(U)p.m(U)p.r(G)p.r(A)p.r(A)p.r(G)p.r(G)p.m(U)p.r(G)p.m(U)p.r(A)p.r(G)p.r(A)p.r(U)p.r(C)p.r(C)p.r(G)p.r(T)p.r(T)}$$$RNA1{StrandType:ss}|RNA2{StrandType:as}$	42%
RNA1{m(G)p.r(A)p.m(A)p.r(G)p.m(G)p.r(G)p.m(G)p.r(A)p.m(A)p.r(A)p.m(U)p.r(C)p.m(U)p.r(G)p.m(U)p.r(G)p.m(G)p.r(U)p.m(U)p.r(T)p.r(T)}|RNA2{r(A)p.r(A)p.r(C)p.r(C)p.r(A)p.r(C)p.r(A)p.r(G)p.r(A)p.r(U)p.r(U)p.r(U)p.r(C)p.r(C)p.r(C)p.r(C)p.r(U)p.r(U)p.r(C)p.r(T)p.r(T)}$$$RNA1{StrandType:ss}|RNA2{StrandType:as}$	41%
